- System: Hedgehog signaling pathway
- EXPERIMENTAL_DETAILS: Hedgehog pathway repression, approximate IC50 from RT-PCR
- Assay type: cell-based, mouse
- TEST_PARAMETERS: Mus musculus, read-out: Approximate IC50 for pathway repression
- Description: Another experiment was carried out to determine the dosage response of these phytoestrogen on Gli1 expression in the TRAMP-C2 cell line. […] The results of this experiment verifies a correlation between phytoestrogen treatment and Hedgehog activity (FIG. 6). […] These concentrations may be easily obtainable pharmacologically in humans.
pIC50: −log10 of the molar value.

TEST_SMILES: O=c1c(-c2ccc(O)cc2)coc2cc(O)cc(O)c12
pIC50: ~4.52

Values were extracted from patent US20090054517A1.
